Reference source: patent US8026218B2

Listed next: entries and their corresponding Ki.
Biological target: rat NK1 (rNK1) receptor (Rattus norvegicus)
Construct: expressed in transfected cells; host or cells: CHO (rNK-1/CHO cell line from Dr. James Krause)
Sequence (P14600 whole entry): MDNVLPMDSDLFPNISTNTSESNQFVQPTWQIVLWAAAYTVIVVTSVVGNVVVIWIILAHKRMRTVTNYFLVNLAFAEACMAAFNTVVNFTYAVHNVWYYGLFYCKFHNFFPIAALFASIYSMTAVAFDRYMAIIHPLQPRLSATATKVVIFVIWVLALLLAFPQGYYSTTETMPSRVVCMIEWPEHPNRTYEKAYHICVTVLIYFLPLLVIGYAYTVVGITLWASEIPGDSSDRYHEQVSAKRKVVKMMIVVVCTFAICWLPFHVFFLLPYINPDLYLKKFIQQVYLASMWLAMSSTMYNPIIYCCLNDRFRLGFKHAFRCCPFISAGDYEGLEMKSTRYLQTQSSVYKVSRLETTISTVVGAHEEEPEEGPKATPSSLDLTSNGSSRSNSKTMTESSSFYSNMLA
Assay: Radioligand competition binding, [3H]substance P, rNK1/CHO membranes
Details: Table 39; read-out: Affinity rNK1 (Ki; nM)
Peptide text beside a SMILES is read from it.
State the answer as a number, implicitly in nM.

CCCC[C@@H]1NC(=O)[C@H](Cc2ccccc2)NC(=O)CNC(=O)[C@H](NC(=O)[C@@H](N)Cc2ccc(O)cc2)CSSC[C@H](C(=O)N[C@@H](Cc2c[nH]c3ccccc23)C(=O)NCc2cc(C(F)(F)F)cc(C(F)(F)F)c2)NC(=O)[C@@H]2CCCN2C1=O [TY038, [D-Cys^2, D-Cys^7]TY027] (HELM PEPTIDE1{Y.[dC].G.F.[Nle].P.[dC].W.[FC(F)(F)c1cc(CN[*:1])cc(C(F)(F)F)c1]}$PEPTIDE1,PEPTIDE1,2:R3-7:R3$$$V2.0; N-terminus assumed)    7.11
CCCC[C@@H]1NC(=O)[C@H](Cc2ccccc2)NC(=O)CNC(=O)[C@H](NC(=O)[C@@H](N)Cc2ccc(O)cc2)CSSC[C@@H](C(=O)N[C@@H](Cc2c[nH]c3ccccc23)C(=O)NCc2cc(C(F)(F)F)cc(C(F)(F)F)c2)NC(=O)[C@@H]2CCCN2C1=O [TY035, [D-Cys^2, Cys^7]TY027] (HELM PEPTIDE1{Y.[dC].G.F.[Nle].P.C.W.[FC(F)(F)c1cc(CN[*:1])cc(C(F)(F)F)c1]}$PEPTIDE1,PEPTIDE1,2:R3-7:R3$$$V2.0; N-terminus assumed)    30
CC(C)C[C@H](NC(=O)[C@@H]1CCCN1C(=O)[C@H](CC[S+](C)[O-])NC(=O)[C@H](Cc1ccccc1)NC(=O)CNC(=O)[C@@H](C)NC(=O)[C@@H](N)Cc1ccc(O)cc1)C(=O)N[C@@H](Cc1c[nH]c2ccccc12)C(=O)OCc1cc(C(F)(F)F)cc(C(F)(F)F)c1 (some centres unmarked)    0.2
CC(C)C[C@H](NC(=O)[C@@H]1CCCN1C(=O)[C@H]1CSSC[C@@H](NC(=O)[C@@H](N)Cc2ccc(O)cc2)C(=O)NCC(=O)N[C@@H](Cc2ccccc2)C(=O)N1)C(=O)N[C@@H](Cc1c[nH]c2ccccc12)C(=O)NCc1cc(C(F)(F)F)cc(C(F)(F)F)c1 [TY037, [D-Cys^2, D-Cys^5]TY027]    45.5

Now consider a different molecule.
Need Ki, item CSCC[C@H](NC(=O)[C@H](Cc1ccccc1)NC(=O)CNC(=O)[C@@H](C)NC(=O)[C@@H](N)Cc1ccc(O)cc1)C(=O)N1CCC[C@H]1C(=O)N[C@@H](CC(C)C)C(=O)N[C@@H](Cc1c[nH]c2ccccc12)C(=O)NCc1ccccc1
696
